Attribution: patent US8895585B2

ASSAY TARGET: glutathione S-transferase (GST)-fused full-length human Syk protein (Homo sapiens, UniProt P43405)
Construct: (GST)-fused full-length human Syk protein; GST (glutathione S-transferase); purchased Carna Biosciences
TEST PROTOCOL: Syk enzyme assay
Type: biochemical
RECORDED CONDITIONS: Syk enzyme assay, Test Example 1; read-out: IC50 of Syk-inhibitory activity
Catalogue of IC50 values

Example cases with answers are listed next.
# COMPOUND, ASSAY VALUE
data = [
    ("CCCC[C@H](CN)Nc1nc(Nc2ccc3c(cnn3CC(F)F)c2)c(C(N)=O)cc1F", "0.05 to 0.1 µM"),
    ("Cn1ncc2cc(Nc3nc(N[C@H](c4ccccc4)[C@@H](N)c4ccccc4)c(F)cc3C(N)=O)ccc21 (racemic)", "< 0.01 µM"),
    ("NC(=O)c1cc(F)c(NC2CCCCC2N)nc1Nc1cncc(-c2ccc3cnccc3c2)c1 (stereo not drawn)", "< 0.01 µM"),
    ("CCS(=O)(=O)Nc1cccc2cc(Nc3nc(N[C@@H]4CCCC[C@@H]4N)c(F)cc3C(N)=O)cnc12 (relative stereo)", "< 0.01 µM"),
    ("CC[C@H](CN)Nc1nc(Nc2ccc3ncccc3c2)c(C(N)=O)cc1F", "< 0.01 µM"),
]

stdin: What value of IC50 has been reported for the following compound? NC(=O)c1cc(F)c(NC2CCCCC2N)nc1Nc1ccc(N2CCOCC2=O)nc1 (stereo not drawn)
stdout: 0.1 to 1 µM

stdin: What value of IC50 has been reported for the following compound? CCOc1cc(Nc2nc(N[C@H](C)[C@H](C)N)c(F)cc2C(N)=O)ccn1 (racemic)
stdout: < 0.01 µM

stdin: What value of IC50 has been reported for the following compound? NC(=O)c1cc(F)c(N[C@@H]2CCCC[C@@H]2N)nc1Nc1cc(F)cc2c1ccn2CCN1CCOCC1 (relative stereo)
stdout: < 0.01 µM

stdin: What value of IC50 has been reported for the following compound? COc1cc(Nc2nc(NC3CCCC3C(N)=O)c(F)cc2C(N)=O)cc(OC)c1 (stereo not drawn)
stdout: 0.1 to 1 µM

stdin: What value of IC50 has been reported for the following compound? CCn1ncc2cc(Nc3nc(N[C@@H](CN)CC(C)C)c(F)cc3C(N)=O)ccc21
stdout: < 0.01 µM

stdin: What value of IC50 has been reported for the following compound? CCn1ncc2cc(Nc3nc(N[C@H](COC)[C@H](C)N)c(F)cc3C(N)=O)ccc21
stdout: < 0.01 µM

stdin: What value of IC50 has been reported for the following compound? NC(=O)c1cc(F)c(N[C@@H]2CCCC[C@@H]2N)nc1Nc1cncc(N2CCCC2=O)c1
stdout: 0.01 to 0.05 µM

stdin: What value of IC50 has been reported for the following compound? CC[C@@H](Nc1nc(Nc2ccc3c(c2)c(C)nn3C)c(C(N)=O)cc1F)[C@H](C)N
stdout: < 0.01 µM

stdin: What value of IC50 has been reported for the following compound? CC(C)C[C@H](CN)Nc1nc(Nc2cncc(-n3nccn3)c2)c(C(N)=O)cc1F
stdout: < 0.01 µM

stdin: What value of IC50 has been reported for the following compound? Cn1nc(F)c2ccc(Nc3nc(NC4CCCCC4N)c(F)cc3C(N)=O)cc21 (stereo not drawn)
stdout: < 0.01 µM

stdin: What value of IC50 has been reported for the following compound? Cn1ccc2cc(Nc3nc(N[C@@H]4CCCC[C@@H]4N)c(F)cc3C(N)=O)cnc21
stdout: < 0.01 µM

stdin: What value of IC50 has been reported for the following compound? NC(=O)c1cc(F)c(N[C@@H]2CCCC[C@@H]2N)nc1Nc1ccnc(-n2ccnn2)c1 (relative stereo)
stdout: < 0.01 µM

stdin: What value of IC50 has been reported for the following compound? C[C@H](N)[C@@H](C)Nc1nc(Nc2cccc3ncccc23)c(C(N)=O)cc1F
stdout: < 0.01 µM

stdin: What value of IC50 has been reported for the following compound? CC(C)(C)[C@H](CN)Nc1nc(Nc2ccc3ncccc3c2)c(C(N)=O)cc1F
stdout: 0.05 to 0.1 µM

* * *

Catalogue of IC50 values
System: THP-1 cells
TEST PROTOCOL: TNFα generation assay
Format: cell-based, human
RECORDED CONDITIONS: Homo sapiens, THP-1, THP-1 cells; Table 22; read-out: IC50 in TNFα generation assay
Protocol: THP-1 cells (2×10^5 cells/ml), which were human monocytoid cells, were cultured in the presence of 10 ng/ml IFN-γ (Roche) for 2 days, so that the cells were induced to differentiate into macrophage-like cells. […] Thereafter, the cultured solution was recovered, and the amount of TNFα secreted into the culture solution was then measured by the ELISA method (Roche/R & D Systems) or the AlphaLISA method (PerkinElmer).

# COMPOUND, IC50
data = [
    ("C[C@H](N)[C@H](Nc1nc(Nc2ccc3c(c2)c(F)nn3C)c(C(N)=O)cc1F)C1CC1", "< 65 nM"),
]

stdin: What value of IC50 has been reported for the following compound? NC(=O)c1cc(F)c(NC2CCCCC2N)nc1Nc1cncc(-n2cncn2)c1 (stereo not shown)
stdout: 130 to 200 nM

stdin: What value of IC50 has been reported for the following compound? NC(=O)c1cc(F)c(N[C@@H]2CCCC[C@@H]2N)nc1Nc1ccc2nc(-c3ccccc3)cn2c1
stdout: 130 to 200 nM

stdin: What value of IC50 has been reported for the following compound? COc1ncc(Nc2nc(N[C@@H]3CCCC[C@@H]3N)c(F)cc2C(N)=O)cc1-n1nccn1
stdout: < 65 nM

stdin: What value of IC50 has been reported for the following compound? C[C@H](N)[C@@H](C)Nc1nc(Nc2ccc3scnc3c2)c(C(N)=O)cc1F (racemic)
stdout: 65 to 130 nM

stdin: What value of IC50 has been reported for the following compound? CCC[C@@H](Nc1nc(Nc2ccc3ncccc3c2)c(C(N)=O)cc1F)[C@H](C)N
stdout: < 65 nM

stdin: What value of IC50 has been reported for the following compound? CC[C@@H](Nc1nc(Nc2ccnc(-c3ccc(OC)cc3)c2)c(C(N)=O)cc1F)[C@H](C)N
stdout: 65 to 130 nM

* * *

Test system: THP-1 cells
TEST PROTOCOL: TNFα generation assay
Type: cell-based, human
RECORDED CONDITIONS: Homo sapiens, THP-1, THP-1 cells; Table 22; read-out: IC50 in TNFα generation assay
Protocol: THP-1 cells (2×10^5 cells/ml), which were human monocytoid cells, were cultured in the presence of 10 ng/ml IFN-γ (Roche) for 2 days, so that the cells were induced to differentiate into macrophage-like cells. […] Thereafter, the cultured solution was recovered, and the amount of TNFα secreted into the culture solution was then measured by the ELISA method (Roche/R & D Systems) or the AlphaLISA method (PerkinElmer).
pIC50: −log10 of the molar value.
OUTCOME MEASURE: pIC50

stdin: What value of pIC50 has been reported for the following molecule? CCOc1cc(Nc2nc(N[C@@H](CN)CC(C)C)c(F)cc2C(N)=O)ccn1 [Example 006-145]
stdout: 6.89 to 7.19

stdin: What value of pIC50 has been reported for the following molecule? NC(=O)c1cc(F)c(NC2CCCCC2N)nc1Nc1ccnc(-n2cncn2)c1 (centres unmarked) [Example 002-114]
stdout: > 7.19

stdin: What value of pIC50 has been reported for the following molecule? CCc1nn(CC)c2ccc(Nc3nc(N[C@H](C4CC4)[C@H](C)N)c(F)cc3C(N)=O)cc12 [Example 006-579]
stdout: 6.89 to 7.19

stdin: What value of pIC50 has been reported for the following molecule? Cc1cccc(Nc2nc(NC3CCCCC3N)c(Cl)cc2C(N)=O)c1 (centres unmarked) [Example 035-005]
stdout: 6.70 to 6.89

stdin: What value of pIC50 has been reported for the following molecule? COc1nccc2cc(Nc3nc(N[C@@H]4CCCC[C@@H]4N)c(F)cc3C(N)=O)ccc12 (relative stereo) [Example 004-164]
stdout: 6.70 to 6.89

stdin: What value of pIC50 has been reported for the following molecule? CCOc1nn(CC)c2ccc(Nc3nc(N[C@@H]4CCCC[C@@H]4N)c(F)cc3C(N)=O)cc12 [Example 006-590]
stdout: 6.70 to 6.89

stdin: What value of pIC50 has been reported for the following molecule? Cn1ncc2cc(Nc3nc(N[C@@H]4CCCC[C@@H]4N)c(F)cc3C(N)=O)cnc21 [Example 004-213]
stdout: 6.89 to 7.19

stdin: What value of pIC50 has been reported for the following molecule? CCOc1cc(Nc2nc(NC3CCCCC3N)c(F)cc2C(N)=O)ccn1 (centres unmarked) [Example 002-060]
stdout: 6.89 to 7.19

* * *

ASSAY TARGET: glutathione S-transferase (GST)-fused full-length human Syk protein (Homo sapiens, UniProt P43405)
Construct: (GST)-fused full-length human Syk protein; GST (glutathione S-transferase); purchased Carna Biosciences
TEST PROTOCOL: Syk enzyme assay
Format: biochemical
RECORDED CONDITIONS: Syk enzyme assay, Test Example 1; read-out: IC50 of Syk-inhibitory activity
pIC50: −log10 of the molar value.
OUTCOME MEASURE: pIC50

# COMPOUND, ASSAY VALUE
rows = [
    ("CC[C@@H](Nc1nc(Nc2ccc3c(c2)c(OC)nn3C)c(C(N)=O)cc1F)[C@H](C)N [Example 006-588]", "> 8.00"),
    ("NCCNc1nc(Nc2cc(Cl)cc(Cl)c2)c(C(N)=O)cc1F [Example 006-007]", "7.00 to 7.30"),
    ("C=C(C)C[C@@H](Nc1nc(Nc2ccc3c(cnn3CC)c2)c(C(N)=O)cc1F)[C@H](C)N [Example 006-397]", "> 8.00"),
]

stdin: What value of pIC50 has been reported for the following compound? C[C@H](N)[C@@H](CC1CC1)Nc1nc(Nc2ccc3cnn(C4CC4)c3c2)c(C(N)=O)cc1F [Example 006-480]
stdout: > 8.00
